Source: patent US10793566B2

SYSTEM_TESTED: BTK (Homo sapiens (Human), UniProt Q06187)
pIC50: −log10 of the molar value.
ASSAY_ENDPOINT: pIC50

| INPUT_SMILES | MEASURED |
| --- | --- |
| COc1cccc(Oc2ccc(-c3nn([C@@H]4CCCN(C(=O)/C(C#N)=C/C(C)(C)C)C4)c4c(OC)cncc34)cc2)c1F | 7.00 to 8.00 |

----------
SYSTEM_TESTED: BTK (Homo sapiens (Human), UniProt Q06187)
PROTOCOL_SUMMARY: Btk occupancy in cellular assays (PCI-33380 labeling)
Assay type: cell-based
CONDITION_DETAILS: Jeko-1 cells, 1.5 h pre-incubation, PCI-33380 probe
Sequence (Q06187 whole entry): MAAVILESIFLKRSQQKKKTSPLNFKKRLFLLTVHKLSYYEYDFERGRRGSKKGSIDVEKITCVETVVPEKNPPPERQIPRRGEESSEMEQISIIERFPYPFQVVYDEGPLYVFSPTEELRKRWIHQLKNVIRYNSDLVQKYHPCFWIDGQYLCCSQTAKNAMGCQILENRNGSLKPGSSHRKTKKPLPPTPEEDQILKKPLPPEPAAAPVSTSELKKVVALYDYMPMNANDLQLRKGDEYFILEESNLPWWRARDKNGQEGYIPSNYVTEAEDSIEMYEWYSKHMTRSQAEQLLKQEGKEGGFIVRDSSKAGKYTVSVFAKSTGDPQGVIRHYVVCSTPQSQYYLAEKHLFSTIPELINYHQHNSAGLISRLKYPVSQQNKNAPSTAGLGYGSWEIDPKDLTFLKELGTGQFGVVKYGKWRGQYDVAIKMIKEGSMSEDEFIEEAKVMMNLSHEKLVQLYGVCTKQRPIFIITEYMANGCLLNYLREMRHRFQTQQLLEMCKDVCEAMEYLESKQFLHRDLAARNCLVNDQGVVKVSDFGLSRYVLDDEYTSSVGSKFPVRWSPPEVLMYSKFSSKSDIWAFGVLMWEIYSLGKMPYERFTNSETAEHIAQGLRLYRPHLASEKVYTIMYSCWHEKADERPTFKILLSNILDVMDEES
concentration sufficient to fully occupy the active site of Btk reference
ASSAY_ENDPOINT: concentration sufficient to fully occupy the active site of Btk (nM)

| INPUT_SMILES | UNIT_ABBREV | MEASURED |
| --- | --- | --- |
| C=CC(=O)N1CCC[C@@H](n2nc3ccncc3c2-c2ccc(Oc3cccc(Cl)c3Cl)cc2)C1 | nM | 100 |
| C=CC(=O)N1CC[C@@H](n2nc(-c3ccc(Oc4cccc(OC)c4F)cc3)c3cncc(OC)c32)C1 | nM | 50 |
| C=CC(=O)N1CC[C@@H](n2nc(-c3ccc(Oc4cccc(OC)c4F)cc3)c3cncc(OCC)c32)C1 | nM | 50 |
| C=CC(=O)N1CC[C@@H](n2nc(-c3ccc(Oc4cccc(F)c4Cl)cc3)c3cnccc32)C1 | nM | 100 |
| C=CC(=O)N1CC[C@@H](n2nc(-c3ccc(Oc4cccc(OC)c4Cl)cc3)c3cncc(OC)c32)C1 | nM | 100 |
| C=CC(=O)N1CCC[C@@H](n2nc(-c3ccc(Oc4cccc(OC)c4F)cc3)c3cncc(OCCO)c32)C1 | nM | 100 |
| C=CC(=O)N1CCC[C@@H](n2nc(-c3ccc(Oc4cccc(OC)c4F)cc3)c3cnccc32)C1 | nM | 100 |
| C=CC(=O)N1CCC[C@@H](n2nc(-c3ccc(Oc4cccc(OC)c4F)cc3)c3cncc(OCCC)c32)C1 | nM | 25 |

----------
SYSTEM_TESTED: BTK (Homo sapiens (Human))
PROTOCOL_SUMMARY: Btk occupancy in cellular assays (PCI-33380 labeling)
Type: cell-based
CONDITION_DETAILS: Jeko-1 cells, 1.5 h pre-incubation, PCI-33380 probe
concentration sufficient to fully occupy the active site of Btk reference
ASSAY_ENDPOINT: concentration sufficient to fully occupy the active site of Btk (nM)

| COMPOUND | MEASURED |
| --- | --- |
| C=CC(=O)N1CCC[C@@H](n2nc(-c3ccc(Oc4cccc(OC)c4Cl)cc3)c3cnccc32)C1 | 100 |
| C=CC(=O)N1CCC[C@@H](n2nc(-c3ccc(Oc4cccc(F)c4F)cc3)c3cnccc32)C1 | 100 |
| C=CC(=O)N1CC[C@@H](n2nc3ccncc3c2-c2ccc(Oc3cccc(Cl)c3Cl)cc2)C1 | 100 |
| C=CC(=O)N1CCC[C@@H](n2nc(-c3ccc(Oc4cccc(OC)c4F)cc3)c3cncc(OCC)c32)C1 | 100 |
| C=CC(=O)N1CC[C@@H](n2nc(-c3ccc(Oc4cccc(OC)c4F)cc3)c3cnccc32)C1 | 50 |
| C=CC(=O)N1CCC[C@@H](n2nc(-c3ccc(Oc4cccc(OC)c4F)cc3)c3cncc(OC4CCOC4)c32)C1 (stereo partly shown) | 100 |
| C=CC(=O)N1CCC[C@@H](n2nc(-c3ccc(Oc4cccc(OC)c4F)cc3)c3c(C)nccc32)C1 | 50 |
